Entries annotated with measured pEC50
Target: Hepatocyte Growth Factor (HGF), human (human, UniProt P14210 32-728)
Sequence (P14210 32-728): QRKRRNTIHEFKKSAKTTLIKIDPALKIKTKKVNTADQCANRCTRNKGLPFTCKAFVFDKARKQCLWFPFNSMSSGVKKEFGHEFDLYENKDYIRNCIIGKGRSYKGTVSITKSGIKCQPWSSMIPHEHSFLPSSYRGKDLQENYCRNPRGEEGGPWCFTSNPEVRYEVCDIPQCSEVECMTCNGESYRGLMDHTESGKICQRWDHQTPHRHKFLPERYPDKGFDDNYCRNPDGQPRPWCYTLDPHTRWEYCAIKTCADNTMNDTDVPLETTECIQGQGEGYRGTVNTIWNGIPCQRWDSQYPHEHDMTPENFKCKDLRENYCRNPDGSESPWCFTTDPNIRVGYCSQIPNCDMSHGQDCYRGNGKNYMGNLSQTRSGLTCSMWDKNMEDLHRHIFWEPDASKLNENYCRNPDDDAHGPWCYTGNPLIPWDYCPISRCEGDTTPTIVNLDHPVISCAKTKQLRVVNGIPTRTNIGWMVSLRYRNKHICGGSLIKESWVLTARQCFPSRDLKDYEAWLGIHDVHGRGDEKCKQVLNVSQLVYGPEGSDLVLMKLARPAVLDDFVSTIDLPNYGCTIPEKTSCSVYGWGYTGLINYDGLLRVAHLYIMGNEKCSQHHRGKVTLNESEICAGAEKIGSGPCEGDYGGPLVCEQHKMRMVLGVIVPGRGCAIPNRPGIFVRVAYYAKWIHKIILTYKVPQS
Test: ELISA
pEC50: −log10 of the molar value.
observable: pEC50

binder	assay.result
HC 4/SLC 9 (antibody) chain 1: GQGTLVTVSSASTKQPVLHQPPAMSSALGTTIRLTCTLRNDHDIGVYSVYWYQQRPGHPPRFLLRYFSQSDKSQGPQVPPRFSGSKDVARNRGYLSISELQPEDEAMYYCAMGARSRCWPRGFQSKHNSVTHVFGSGTQLTVLSQPKATPSVTLFPPSSEELQANKATLVCLMNDFYPGILTVTWKADGTPITQGVEMTTPSKQSNNKYAASSYLSLTPEQWRSRRSYSCQVMHEGSTVEKTVAPAECS chain 2: MSWAPVLLMLFVYCTGCGPQPVLHQPPAMSSALGTTIRLTCTLRNDHDIGVYSVYWYQQRPGHPPRFLLRYFSQSDKSQGPQVPPRFSGSKDVARNRGYLSISVTHVFGSGTQLTVLSQPKATPSVQVQLVQ	10.35
HC 6/SLC 2 (antibody) chain 1: GQGTLVTVSSASTKGPQPVLHQPPAMSSALGTTIRLTCTLRNDHDIGVYSVYWYQQRPGHPPRFLLRYFSQSDKSQGPQVPPRFSGSKDVARNRGYLSISELQPEDEAMYYCAMGARSRCWPRGFQSKHNSVTHVFGSGTQLTVLSQPKATPSVTLFPPSSEELQANKATLVCLMNDFYPGILTVTWKADGTPITQGVEMTTPSKQSNNKYAASSYLSLTPEQWRSRRSYSCQVMHEGSTVEKTVAPAECS chain 2: MSWAPVLLMLFVYCTGCGPQPVLHQPPAMSSALGTTIRLTCTLRNDHDIGVYSVYWYQQRPGHPPRFLLRYFSQSDKSQGPQVPPRFSGSKDVARNRGYLSISVTHVFGSGTQLTVLSQQVQLVQ	10.22

Each recorded value in this set is attributed to patent US20150045540A1.
